Where do the numbers come from? From patent EP1882698A1.

Biological target: T1, CXCR3 receptor (UniProt P49682 1-368, limits assumed)
T1 sequence (looked up): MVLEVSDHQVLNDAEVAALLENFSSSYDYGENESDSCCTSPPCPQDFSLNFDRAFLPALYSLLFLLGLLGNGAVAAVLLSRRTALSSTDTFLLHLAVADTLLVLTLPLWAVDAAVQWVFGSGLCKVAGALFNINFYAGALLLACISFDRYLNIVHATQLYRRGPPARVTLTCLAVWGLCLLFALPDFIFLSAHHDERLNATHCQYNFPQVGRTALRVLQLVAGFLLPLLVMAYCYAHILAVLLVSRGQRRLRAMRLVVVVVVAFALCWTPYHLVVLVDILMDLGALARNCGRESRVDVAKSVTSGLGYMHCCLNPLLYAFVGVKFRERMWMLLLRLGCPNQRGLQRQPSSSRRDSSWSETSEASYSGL
Experiment: cell-based or functional assay
Non-standard residues stand in square brackets, D forms with d. No end group written: not given here. Aun = NCCCCCCCCCCC(=O)O
A collection of binders and their measured calcium mobilization activity of CXCR-3/300-19 cells, dosage 11.1 µM
Parameter: calcium mobilization activity of CXCR-3/300-19 cells, dosage 11.1 µM

>>> numeric_result("VPLSRTVRSTSISIS[Aun]ESKAIENLLKAVSK [[Ser^9,Ser^11,Glu^63]-IP-10-(1-15)-[linker]-IP-10-(58-71)]")
17.2
>>> numeric_result("VPLSRTPRCTCISIS[Aun]ESKAIKNLLKAVSK (cysteine pairing not given here) [[Pro^7]-IP-10-(1-15)-[linker]-IP-10-(58-71)]")
14.4
>>> numeric_result("Ac-VPLSRTVRCTCISISN[Aun]LKAVSKEMSKRSP (cysteine pairing not given here) [Acetylated-IP-10-(1-16)-[linker]-IP-10-(66-78)]")
14.1
>>> numeric_result("Ac-VPLSRTVRATFISISN[Aun]LKAVSKEMSKRSP [Acetylated-[Ala^9,Phe^11]-IP-10-(1-16)-[linker]-IP-10-(66-78)]")
15.4
>>> numeric_result("VPLSRTVRSTSISIS[Aun]ESKAIKNLLEAVSK [[Ser^9,Ser^11,Glu^67]-IP-10-(1-15)-[linker]-IP-10-(58-71)]")
12.5
